Reported LD80 values for the following compounds.
- Test system: Tetragonisca angustula
- Test summary: Contact toxicity against adult Tetragonisca angustula assessed as mortality after 24 hr
- Format: organism-based
- Experimental conditions: in vivo, topical_or_ocular
Form entry: value (µg/mg) — number only.

Please review the entries below; each comes with its answer.
C/C=C/C=C\CC/C=C/C(=O)NCC(C)C | 0.81
C#CC#CCCCC/C=C/C(=O)NCC(C)C | 2.02
CC1(C)C(C=C(Cl)Cl)C1C(=O)OCc1cccc(Oc2ccccc2)c1 (centres undefined) | 0.002

Let's switch to this compound now.
// returns LD80 for `C#CC#CCCCC/C=C/C(=O)NC[C@H](C)CC` with Tetragonisca angustula; value = 2.26

====

Reported mortality at 24 h values for the following compounds.
- Test summary: Contact toxicity against adult Solenopsis saevissima assessed as mortality at contact LD80 for second-instar larvae of Tuta absoluta measured after 24 hr
- Type: organism-based
- Experimental conditions: in vivo, topical or ocular
Form entry: value (%) — number only.

Please review the entries below; each comes with its answer.
C/C=C/C=C\CC/C=C/C(=O)NCC(C)C | 68
CC1(C)C(C=C(Cl)Cl)C1C(=O)OCc1cccc(Oc2ccccc2)c1 (stereo not drawn) | 100

Let's switch to this compound now.
Kindly note the recorded mortality at 24 h for `C#CC#CCCCC/C=C/C(=O)NC[C@H](C)CC` , which is 55

====

- Test system: Solenopsis saevissima
- Test summary: Contact toxicity against adult Solenopsis saevissima assessed as mortality after 24 hr
- Type: organism-based
- Experimental conditions: in vivo, topical_or_ocular
Measured attribute: LD80
// return the numeric value with its unit appended

C#CC#CCCCC/C=C/C(=O)NC[C@H](C)CC | 4.4 µg/mg

Kindly note the recorded LD80 for C/C=C/C=C\CC/C=C/C(=O)NCC(C)C [Spilanthol] , which is 1.12 µg/mg

Kindly note the recorded LD80 for CC1(C)C(C=C(Cl)Cl)C1C(=O)OCc1cccc(Oc2ccccc2)c1 (centres undefined) [PERMETHRIN] , which is 1.458 µg/mg

Kindly note the recorded LD80 for `C#CC#CCCCC/C=C/C(=O)NCC(C)C` , which is 2.22 µg/mg

Ref: ChEMBL document CHEMBL3045897
